// reported concentration at 24 h for each item listed
experiment: Drug concentration in Beagle dog plasma at 3 mg/kg, po measured at 24 hrs
Format: ADME, organism-based, Canis lupus familiaris
readoutName: concentration at 24 h

>  <molecule>
COC(=O)[C@@H](N)CSNC(=O)[C@@H](CCC(F)(F)F)N(Cc1ccc(-c2ncon2)cc1F)S(=O)(=O)c1ccc(Cl)cc1

>  <observedValue>
90 to 474 nM

$$$$
>  <molecule>
NC(=O)[C@@H](CCC(F)(F)F)N(Cc1ccc(-c2ncon2)cc1F)S(=O)(=O)c1ccc(Cl)cc1 [AVAGACESTAT]

>  <observedValue>
98 to 442 nM

$$$$

// data source = ChEMBL document CHEMBL4610023
